target: CaV2.2 (Homo sapiens, UniProt Q00975); construct: expressed in transfected cells; host or cells: unnamed doxycycline-inducible cell line; experiment: High-throughput CaV2.2/Kir2.3 FLIPR fluorescent assay; type: cell-based; details: Table 4; Fluo-4 FLIPR; closed or inactivated state not stated; read-out: FLIPR data CaV2.2
Sequence (Q00975 whole entry): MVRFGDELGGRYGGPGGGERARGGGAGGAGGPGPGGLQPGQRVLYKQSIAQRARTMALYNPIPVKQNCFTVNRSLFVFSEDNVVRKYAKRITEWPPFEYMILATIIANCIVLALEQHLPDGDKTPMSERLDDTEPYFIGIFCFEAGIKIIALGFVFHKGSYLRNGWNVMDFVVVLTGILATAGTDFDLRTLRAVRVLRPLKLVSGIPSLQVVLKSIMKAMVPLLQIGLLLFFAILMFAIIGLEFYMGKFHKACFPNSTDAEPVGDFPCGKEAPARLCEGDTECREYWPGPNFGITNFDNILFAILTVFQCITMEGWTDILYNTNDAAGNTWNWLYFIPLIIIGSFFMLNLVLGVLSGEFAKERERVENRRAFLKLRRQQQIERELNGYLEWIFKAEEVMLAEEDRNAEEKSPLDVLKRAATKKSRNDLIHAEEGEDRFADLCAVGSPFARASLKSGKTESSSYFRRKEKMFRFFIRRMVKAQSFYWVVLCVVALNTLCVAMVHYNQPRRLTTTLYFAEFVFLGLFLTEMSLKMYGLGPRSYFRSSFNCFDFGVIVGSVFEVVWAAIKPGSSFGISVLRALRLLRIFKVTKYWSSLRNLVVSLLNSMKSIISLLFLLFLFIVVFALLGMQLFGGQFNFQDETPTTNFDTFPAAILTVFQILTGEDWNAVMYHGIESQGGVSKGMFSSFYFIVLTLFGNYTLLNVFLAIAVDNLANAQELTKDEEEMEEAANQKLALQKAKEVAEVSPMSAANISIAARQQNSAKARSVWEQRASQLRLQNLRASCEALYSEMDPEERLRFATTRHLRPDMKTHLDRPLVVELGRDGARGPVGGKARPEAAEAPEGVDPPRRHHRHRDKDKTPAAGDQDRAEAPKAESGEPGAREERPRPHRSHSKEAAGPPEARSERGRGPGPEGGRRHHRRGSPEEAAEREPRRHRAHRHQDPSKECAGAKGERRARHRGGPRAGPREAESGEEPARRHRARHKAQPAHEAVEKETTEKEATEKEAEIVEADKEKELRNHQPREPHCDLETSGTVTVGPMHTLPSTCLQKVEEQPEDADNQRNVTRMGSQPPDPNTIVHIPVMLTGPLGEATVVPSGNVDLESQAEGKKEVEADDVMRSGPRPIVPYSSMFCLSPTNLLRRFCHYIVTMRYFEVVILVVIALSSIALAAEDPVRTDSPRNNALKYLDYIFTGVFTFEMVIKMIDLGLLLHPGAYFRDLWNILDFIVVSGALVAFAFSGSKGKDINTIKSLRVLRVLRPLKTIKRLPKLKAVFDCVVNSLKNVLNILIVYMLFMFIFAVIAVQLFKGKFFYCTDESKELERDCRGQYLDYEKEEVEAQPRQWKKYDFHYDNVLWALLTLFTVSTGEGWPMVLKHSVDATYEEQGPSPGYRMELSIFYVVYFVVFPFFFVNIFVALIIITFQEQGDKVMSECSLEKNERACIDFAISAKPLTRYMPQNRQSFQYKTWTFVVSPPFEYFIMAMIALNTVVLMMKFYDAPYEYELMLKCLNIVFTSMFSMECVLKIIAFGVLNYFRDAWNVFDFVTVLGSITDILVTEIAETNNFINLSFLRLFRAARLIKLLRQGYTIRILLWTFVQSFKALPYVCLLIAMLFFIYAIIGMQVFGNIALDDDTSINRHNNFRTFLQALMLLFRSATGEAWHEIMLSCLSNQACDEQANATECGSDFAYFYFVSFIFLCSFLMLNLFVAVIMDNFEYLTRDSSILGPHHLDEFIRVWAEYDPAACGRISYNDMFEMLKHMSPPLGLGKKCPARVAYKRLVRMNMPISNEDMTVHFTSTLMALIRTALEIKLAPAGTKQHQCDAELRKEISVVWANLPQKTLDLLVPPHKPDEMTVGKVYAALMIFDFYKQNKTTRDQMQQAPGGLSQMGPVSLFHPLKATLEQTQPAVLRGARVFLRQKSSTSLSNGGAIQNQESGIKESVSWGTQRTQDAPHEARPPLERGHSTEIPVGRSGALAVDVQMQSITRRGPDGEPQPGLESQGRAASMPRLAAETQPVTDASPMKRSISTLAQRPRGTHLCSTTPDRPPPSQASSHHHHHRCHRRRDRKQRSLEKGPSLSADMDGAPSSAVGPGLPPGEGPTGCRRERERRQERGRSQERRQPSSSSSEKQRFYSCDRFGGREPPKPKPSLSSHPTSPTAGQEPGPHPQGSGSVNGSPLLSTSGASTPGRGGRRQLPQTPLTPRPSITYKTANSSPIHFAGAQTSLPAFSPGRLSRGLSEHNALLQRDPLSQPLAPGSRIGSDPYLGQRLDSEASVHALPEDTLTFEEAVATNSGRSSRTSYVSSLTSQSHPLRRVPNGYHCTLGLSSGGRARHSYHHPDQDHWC
Sequence (P54284 whole entry partner): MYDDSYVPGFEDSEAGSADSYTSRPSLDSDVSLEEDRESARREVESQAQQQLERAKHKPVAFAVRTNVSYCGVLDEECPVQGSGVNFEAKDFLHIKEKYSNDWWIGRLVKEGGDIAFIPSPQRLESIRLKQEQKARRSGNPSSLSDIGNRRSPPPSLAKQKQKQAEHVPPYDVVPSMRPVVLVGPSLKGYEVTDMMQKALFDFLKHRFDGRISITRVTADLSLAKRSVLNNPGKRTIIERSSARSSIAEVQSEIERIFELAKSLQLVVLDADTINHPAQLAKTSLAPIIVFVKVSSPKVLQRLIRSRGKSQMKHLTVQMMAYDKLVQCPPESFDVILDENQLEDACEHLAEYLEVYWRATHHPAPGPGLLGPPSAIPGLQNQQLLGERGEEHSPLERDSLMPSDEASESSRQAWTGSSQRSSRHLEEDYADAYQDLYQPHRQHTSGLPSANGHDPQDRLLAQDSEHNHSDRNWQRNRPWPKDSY
Sequence (P54289 25-946 partner limits assumed): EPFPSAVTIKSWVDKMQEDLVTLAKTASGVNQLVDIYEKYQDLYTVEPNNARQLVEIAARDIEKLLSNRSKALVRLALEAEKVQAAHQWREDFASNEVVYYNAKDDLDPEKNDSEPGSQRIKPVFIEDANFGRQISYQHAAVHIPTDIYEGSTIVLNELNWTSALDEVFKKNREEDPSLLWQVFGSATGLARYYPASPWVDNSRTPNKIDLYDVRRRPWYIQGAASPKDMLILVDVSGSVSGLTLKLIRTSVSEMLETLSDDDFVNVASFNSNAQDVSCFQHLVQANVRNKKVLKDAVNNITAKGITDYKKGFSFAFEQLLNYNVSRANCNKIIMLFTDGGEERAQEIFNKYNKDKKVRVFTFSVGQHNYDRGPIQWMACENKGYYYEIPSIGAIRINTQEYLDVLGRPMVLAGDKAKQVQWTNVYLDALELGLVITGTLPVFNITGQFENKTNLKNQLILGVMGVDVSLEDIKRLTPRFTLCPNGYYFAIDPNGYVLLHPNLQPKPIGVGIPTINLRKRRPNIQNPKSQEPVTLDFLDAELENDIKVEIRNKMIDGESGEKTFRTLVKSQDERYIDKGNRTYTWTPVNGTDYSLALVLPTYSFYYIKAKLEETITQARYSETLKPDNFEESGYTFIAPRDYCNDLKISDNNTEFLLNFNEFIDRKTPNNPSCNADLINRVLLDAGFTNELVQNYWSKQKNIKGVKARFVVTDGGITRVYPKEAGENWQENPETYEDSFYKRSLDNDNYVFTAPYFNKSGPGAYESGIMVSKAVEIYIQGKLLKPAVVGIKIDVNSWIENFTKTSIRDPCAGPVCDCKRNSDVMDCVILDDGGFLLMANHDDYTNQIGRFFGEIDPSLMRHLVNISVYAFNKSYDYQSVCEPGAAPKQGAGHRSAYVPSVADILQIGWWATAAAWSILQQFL
Sequence (P54289 947-1103 partner limits assumed): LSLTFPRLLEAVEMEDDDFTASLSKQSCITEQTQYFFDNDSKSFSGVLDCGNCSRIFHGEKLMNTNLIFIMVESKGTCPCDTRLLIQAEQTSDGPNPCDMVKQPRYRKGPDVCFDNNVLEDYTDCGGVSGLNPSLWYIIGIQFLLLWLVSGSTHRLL
readout.name: log10 of IC50 (log10 of the value in nM)

compound: COc1cc(C(=O)NCc2ccc(S(=O)(=O)c3cccc(C(F)(F)F)c3)cc2)cc(Cl)n1
readout.name: log10 of IC50
experimental.value: 2.93
--
compound: O=C(NCc1cccc(S(=O)(=O)c2cccc(C(F)(F)F)c2)c1)c1ccc(C(F)(F)F)cn1
readout.name: log10 of IC50
experimental.value: 2.36
--
compound: O=C(NCc1ccc(S(=O)(=O)c2cccc(C(F)(F)F)c2)cc1)[C@H]1CCCCN1
readout.name: log10 of IC50
experimental.value: 2.89
--
compound: COc1cc(C(=O)NCc2ccccc2S(=O)(=O)c2cccc(C(F)(F)F)c2)cc(Cl)n1
readout.name: log10 of IC50
experimental.value: 3.02
--
compound: O=C(NCc1ccc(S(=O)(=O)c2cccc(C(F)(F)F)c2)cn1)c1ccc(F)c(Cl)c1
readout.name: log10 of IC50
experimental.value: 2.78
--
compound: NC1(C(=O)NCc2ccc(S(=O)(=O)c3cccc(C(F)(F)F)c3)cc2)CCOCC1
readout.name: log10 of IC50
experimental.value: 3.63
--
compound: O=C(NCc1ccc(S(=O)(=O)c2cccc(C(F)(F)F)c2)cn1)c1cc(F)cc(Cl)c1
readout.name: log10 of IC50
experimental.value: 2.99
--
compound: CC1(C(=O)NCc2ccc(S(=O)(=O)c3cccc(C(F)(F)F)c3)cc2)CCCCN1 (centres unmarked)
readout.name: log10 of IC50
experimental.value: 3.29
--
compound: O=C(NCc1ccccc1S(=O)(=O)c1cccc(C(F)(F)F)c1)c1cnc(C(F)(F)F)nc1
readout.name: log10 of IC50
experimental.value: 3.05
--
compound: O=C(NCc1cccc(S(=O)(=O)c2cccc(C(F)(F)F)c2)c1)c1ccc(Cl)c(F)c1
readout.name: log10 of IC50
experimental.value: 2.15
--
compound: O=C(NCc1cc(S(=O)(=O)c2cccc(C(F)(F)F)c2)ccn1)c1ccnn1CC(F)(F)F
readout.name: log10 of IC50
experimental.value: 3.01
--
compound: O=C1c2cc(C(F)(F)F)nn2CCN1Cc1ccccc1S(=O)(=O)c1cccc(C(F)(F)F)c1
readout.name: log10 of IC50
experimental.value: 3.09
--
compound: O=C(NCc1ccc(S(=O)(=O)c2cccc(C(F)(F)F)c2)cc1)c1ccc(C(F)(F)F)nc1
readout.name: log10 of IC50
experimental.value: 2.71
--
compound: O=C(NCc1ccc(S(=O)(=O)c2cccc(C(F)(F)F)c2)cc1)c1ccc(C(F)(F)F)cn1
readout.name: log10 of IC50
experimental.value: 2.65
--
compound: O=C1c2cc(C(F)(F)F)nn2CCN1Cc1cccc(S(=O)(=O)c2cccc(C(F)(F)F)c2)c1
readout.name: log10 of IC50
experimental.value: 2.77
--
compound: O=C(NCc1ccccc1S(=O)(=O)c1cccc(C(F)(F)F)c1)c1ccc(Cl)c(F)c1
readout.name: log10 of IC50
experimental.value: 2.92
--
compound: N[C@H](C(=O)NCc1ccc(S(=O)(=O)c2cccc(C(F)(F)F)c2)cc1)c1ccccc1
readout.name: log10 of IC50
experimental.value: 2.82
